Values compiled from the SangsterLogP compilation.

Measurement Name: logP
Keep the answer to the number alone.

Look up logP for this compound: N#CC(CCN1CCC(C(N)=O)(N2CCCCC2)CC1)(c1ccccc1)c1ccccc1
3.91

====

Experiment Description: method code SF, from DOI: 10.1002/jps.2600620102, PMID: 4566530
Measurement Name: logP
// print number alone

// query logP value for entry Cc1cc(C)c2oc(=O)sc2c1
3.25

====

Measurement Name: logP
Please respond with just the number, no unit label.

What measured logP goes with O=C(O)c1cc(/N=N/c2ccc(S(=O)(=O)Nc3ccccn3)cc2)ccc1O ?
-0.13

====

Measurement Name: logP
// return just the number, without any unit appended

| Line Notation | logP |
| --- | --- |
| CNS(=O)(=O)Cc1ccc2[nH]cc(CCN(C)C)c2c1 | 1.1 |

Lab note: next compound to report on.
Requested field: logP. Item: CN(C)CCN(Cc1ccccc1)c1ccccn1
2.65

====

Examples of molecules with documented logP follow.
Write no unit; give the number alone.

| Line Notation | logP |
| --- | --- |
| CCC(CC)(C(N)=O)c1ccc2c(c1)OCO2 | 1.59 |

// next entry
Using the record for C=CCC(CC=C)(C(N)=O)c1ccc2c(c1)OCO2 , report its logP.
2.1

====

Experiment Description: method code SF-RC, from DOI: 10.1016/s0969-8051(01)00233-5, PMID: 11518650
Measurement Name: logP
Keep it simple and answer with nothing but the number.

| Line Notation | Reported Measurement |
| --- | --- |
| CCN(CC)CCF | 0.94 |

// next entry
Param item = CN(C)CCF ; retrieve measured logP.
0.36

====

Measured logP by item
Please give the numeric answer without any surrounding text.

| Line Notation | logP |
| --- | --- |
| CCNc1nc(Cl)nc(N(CC)CC)n1 | 3.07 |

logP lookup needed for CCNc1nc(Cl)nc(NC(C)(C)C)n1 , thanks.
3.06

====

Measurement Name: logP
A bare number is all that is needed in reply.

Give its logP value. Item: c1ccoc1
1.31

Quick one: logP of CNC(=O)c1ccccc1 ?
1.05

====

Below, each of the molecules is paired with its reported logD value.
Experiment Description: method code SF, from DOI: 10.1097/00004424-199009001-00048
Measurement Setup: pH 7.4
Answer field: number only, no words.

Use the examples below as a reference point.
| Molecule | logD |
| --- | --- |
| O=C(NCCO)c1c(I)c(C(=O)NCCO)c(I)c(N(CC(O)CO)C(=O)C(O)CO)c1I (centres undefined) | -2.64 |
| O=C(NCC(O)CO)c1c(I)c(N(CCO)C(=O)CO)c(I)c(N(CCO)C(=O)CO)c1I (centres undefined) | -2.55 |
| COCC(=O)Nc1c(I)c(C(=O)NCC(O)CO)c(I)c(C(=O)N(C)CC(O)CO)c1I (centres undefined) | -2.05 |

Param item = C[C@H](O)C(=O)Nc1c(I)c(C(=O)NC(CO)CO)c(I)c(C(=O)NC(CO)CO)c1I ; retrieve measured logD.
-2.42

====

Experiment Description: method code SF-AS, from DOI: 10.1039/ft9959100995
As shown below, each of these molecules has a reported logP value.
Number, no unit, nothing else.

| Line Notation | Reported Measurement |
| --- | --- |
| CC(=O)Nc1ncc2ncn(COCCOC(C)=O)c2n1 | -1.05 |

Let us examine a further case.
Given CC(=O)OCCOCn1cnc2cnc(N)nc21 , state its recorded logP.
-0.61

====

Measurement Name: logP
Output spec: single numeric token, no unit.

Given the entry Oc1c(Br)cc(Br)cc1Br , report its measured logP.
4.24

====

Experiment Description: method code SF-AS, from DOI: 10.1111/j.2042-7158.1979.tb13606.x, PMID: 41067
Measurement Setup: pH 1.2
Measurement Name: logD
Keep the answer to the number alone.

| Line Notation | logD |
| --- | --- |
| CCOc1ccc(CC(=O)O)cc1 | 1.95 |
| O=C(O)CCc1ccc(O)cc1 | 1.16 |
| COc1ccc(CC(=O)O)cc1 | 1.48 |

Let us move to another entry and its logD.
# lookup: logD of COc1ccc(CCCC(=O)O)cc1
2.33

====

Experiment Description: method code SF-AS, from DOI: 10.1021/bi00730a008, PMID: 4688860
Measurement Name: logP
Reply briefly: the number, and no unit.

Given the compound CC(=O)c1ccc(NC=O)cc1 , what is its reported logP?
0.94

Report logP for O=CNc1ccc(Cl)cc1 please.
2.04

Any idea what logP was measured for O=CNc1cccc(Cl)c1 ?
1.9

====

Experiment Description: method code SF-HPLC, from DOI: 10.1023/a:1015924724973, PMID: 2762226
Measurement Setup: pH 7.4
Measurement Name: logD
Answer with a number only.

| Line Notation | Reported Measurement |
| --- | --- |
| N[C@@H](Cc1ccc(O)c(O)c1)C(=O)OCCCCO | -0.46 |

From here, focus on the item given below.
For the molecule CCCCOC(=O)[C@@H](N)Cc1ccc(O)c(O)c1 , what logD is on record?
1.19

====

Property: logP; scope: individual compounds
Reply briefly: the number, and no unit.

Look at this compound and give its reported logP. CNC(=O)Oc1cc(C)cc(C)c1
2.38

Entry N#Cc1c(Cl)c(Cl)c(Cl)c(C#N)c1Cl : reported logP = ?
3.8

Field request: logP | item: CNC(=O)Oc1ccccc1OC(C)C
1.99

// logP lookup, key: CNC(=O)Oc1ccc(C)c(C)c1
2.25

Can you share its logP? I mean this compound: Cc1ccccc1C(=O)Nc1cccc(OC(C)C)c1
3.5

====

Experiment Description: method code SF-HPLC, from DOI: 10.1016/0378-5173(92)90116-j
Measurement Setup: pH 7.4
Measurement Name: logD
Write the number on its own, no unit after it.

Look at this compound and give its reported logD. CCC(C(=O)OCc1ccc(COC(=O)C(CC)C(CO)Cc2cncn2C)cc1)C(CO)Cc1cncn1C (centres undefined)
2.18

Entry CCC(C(=O)OCc1ccccc1COC(=O)C(CC)C(CO)Cc1cncn1C)C(CO)Cc1cncn1C (centres undefined) : reported logD = ?
2.03

Consider the compound shown here: CCC(C(=O)OCCCCCOC(=O)C(CC)C(CO)Cc1cncn1C)C(CO)Cc1cncn1C (centres undefined) What is its recorded logD?
1.57

Return reported logD; argument: CCC(C(=O)OCCCCCCCOC(=O)C(CC)C(CO)Cc1cncn1C)C(CO)Cc1cncn1C (centres undefined)
2.67

====

Measured logP accompanies every entry in the list below.
Lab note: record the figure alone, no unit after it.

| Line Notation | logP |
| --- | --- |
| Oc1ccc(Cl)cc1 | 2.43 |

For the next question, use this compound.
Given the compound COc1ccccc1 , what is its reported logP?
2.15

====

Listed here: items and their measured logD.
Experiment Description: method code SF, from DOI: 10.1038/bjc.1982.190, PMID: 7150475
Measurement Setup: pH 7.4
Answer with a bare number; do not write a unit.

Below: 3 compounds and their reported logD.
| Compound | logD |
| --- | --- |
| Cn1cnc([N+](=O)[O-])c1S(=O)(=O)Oc1ccccc1 | 1.08 |
| O=C1CN(/N=C/c2ccc([N+](=O)[O-])o2)C(=O)N1 | -0.19 |
| NC(=O)c1cc(N2CC2)c([N+](=O)[O-])cc1[N+](=O)[O-] | 0.2 |

Now let's try a different one.
Please report the recorded logD for O=[N+]([O-])c1nccn1CC(O)CCN1CCOCC1 (centres undefined) .
-0.53

====

Measurement Name: logP

Reference set (4 entries):
| Line Notation | logP |
| --- | --- |
| Cc1ccc([N+](=O)[O-])cc1C | 2.91 |
| Cc1ccc(Cl)cc1[N+](=O)[O-] | 3.05 |
| Cc1cccc([N+](=O)[O-])c1C | 2.83 |
| O=[N+]([O-])c1cccc(Cl)c1Cl | 3.01 |

Here is another compound to look at.
Which logP value is on record for O=[N+]([O-])c1cc(Cl)cc(Cl)c1 ?
3.13

====

Experiment Description: method code SF, from PMID: 7274411
Measurement Setup: pH 8.0
Item-by-item account of logD
# answer = number (no unit)

| Line Notation | logD |
| --- | --- |
| O=C1CN=C(c2ccccc2)c2cc([N+](=O)[O-])ccc2N1 | 2.06 |

Read the next record carefully.
Which logD reading was recorded for the compound C/N=C1/CN(O)C(c2ccccc2)=c2cc(Cl)ccc2=N1 ?
2.12

====

Catalogue of logD readings, one per entry.
Experiment Description: method code SF-HPLC, from DOI: 10.1248/cpb.47.1081, PMID: 10478463
Measurement Setup: pH 6.5

Reference set (2 entries):
| Molecule | logD |
| --- | --- |
| CCOC(=O)OC(C)OC(=O)C1=CCSC2C(NC(=O)C(=NOC)c3csc(N)n3)C(=O)N12 (stereo not drawn) | 0.96 |
| CON=C(C(=O)NC1C(=O)N2C(C(=O)OCOC(=O)C(C)(C)C)=CCSC12)c1csc(N)n1 (stereo not drawn) | 1.57 |

Entry under review: CO/N=C(/C(=O)NC1C(=O)N2C(C(=O)OCc3oc(=O)oc3C)=CCSC12)c1csc(N)n1 (stereo not drawn) . Reported logD?
0.17
